# SUBJECT OF TEST: CYP2C19 (Homo sapiens, UniProt P33261)
# Sequence (P33261 whole entry): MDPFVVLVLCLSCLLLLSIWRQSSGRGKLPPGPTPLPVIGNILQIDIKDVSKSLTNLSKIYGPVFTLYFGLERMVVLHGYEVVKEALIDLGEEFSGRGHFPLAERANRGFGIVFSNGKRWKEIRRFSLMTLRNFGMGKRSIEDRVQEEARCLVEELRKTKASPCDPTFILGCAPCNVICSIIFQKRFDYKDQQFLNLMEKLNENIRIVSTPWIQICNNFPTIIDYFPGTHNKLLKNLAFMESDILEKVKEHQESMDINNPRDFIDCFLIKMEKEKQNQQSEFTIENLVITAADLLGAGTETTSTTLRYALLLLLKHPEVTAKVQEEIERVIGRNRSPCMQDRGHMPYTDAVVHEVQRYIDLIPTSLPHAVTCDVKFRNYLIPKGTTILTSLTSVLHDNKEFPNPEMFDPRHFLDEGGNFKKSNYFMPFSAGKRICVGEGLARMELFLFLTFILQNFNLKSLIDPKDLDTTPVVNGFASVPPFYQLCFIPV
ASSAY READOUT: IC50 (µM)

[[record]]
compound = "CCO[C@H](Cc1cccc(/C(C)=N/OCc2ccc(Br)cc2)c1)C(=O)O [KS15, reference compound]"
uom = "µM"
experimental_result = 20.2


----------
# METHOD NOTES: Metabolic stability test in pooled human liver microsomes
# Type: in vitro ADME
# RUN PARAMETERS: pooled HLMs 1.0 mg/mL, 1 μM compound, NADPH generating system, read-out: t1/2 in HLMs
Entries annotated with measured half-life at 1 μM
ASSAY READOUT: half-life at 1 μM

[[record]]
compound = "CC(=NOCc1ccc([N+](=O)[O-])cc1)c1cccc(OCC(=O)O)c1"
experimental_result = "> 60 min"

[[record]]
compound = "CCO[C@H](Cc1cccc(/C(C)=N/OCc2ccc(Br)cc2)c1)C(=O)O [KS15, reference compound]"
experimental_result = "> 60 min"

[[record]]
compound = "COC(=O)COc1cccc(C(C)=NOCc2ccc([N+](=O)[O-])cc2)c1"
experimental_result = "2.4 min"


----------
# SUBJECT OF TEST: CYP2C9 (Homo sapiens, UniProt P11712)
# Sequence (P11712 whole entry): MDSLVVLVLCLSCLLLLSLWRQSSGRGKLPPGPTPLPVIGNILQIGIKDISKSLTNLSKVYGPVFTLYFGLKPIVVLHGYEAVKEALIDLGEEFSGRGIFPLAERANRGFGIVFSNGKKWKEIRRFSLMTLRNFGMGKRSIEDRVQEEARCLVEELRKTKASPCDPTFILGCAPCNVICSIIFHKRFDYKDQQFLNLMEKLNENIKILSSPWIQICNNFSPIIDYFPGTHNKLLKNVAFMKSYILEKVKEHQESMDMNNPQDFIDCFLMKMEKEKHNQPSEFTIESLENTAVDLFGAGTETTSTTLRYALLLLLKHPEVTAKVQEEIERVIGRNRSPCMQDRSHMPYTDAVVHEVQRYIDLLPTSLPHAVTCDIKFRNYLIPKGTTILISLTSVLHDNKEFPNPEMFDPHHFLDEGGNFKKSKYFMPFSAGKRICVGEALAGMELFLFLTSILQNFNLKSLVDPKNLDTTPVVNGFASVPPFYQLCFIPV
ASSAY READOUT: IC50 (µM)

[[record]]
molecule = "CCO[C@H](Cc1cccc(/C(C)=N/OCc2ccc(Br)cc2)c1)C(=O)O [KS15, reference compound]"
uom = "µM"
experimental_result = 9.1


----------
# Test system: CYP3A
# METHOD NOTES: Cytochrome P450 inhibition assay (cocktail method, human liver microsomes), midazolam 1'-hydroxylation
# Type: in vitro ADME
# RUN PARAMETERS: pooled human liver microsomes, probe midazolam (5 μM)
Listed compounds paired with reported IC50 at 10 min
ASSAY READOUT: IC50 at 10 min

[[record]]
compound = "CCO[C@H](Cc1cccc(/C(C)=N/OCc2ccc(Br)cc2)c1)C(=O)O [KS15, reference compound]"
subject_of_test = "CYP3A"
assay_readout = "IC50 at 10 min"
experimental_result = "24 µM"

[[record]]
compound = "COC(=O)COc1cccc(C(C)=NOCc2ccc([N+](=O)[O-])cc2)c1"
subject_of_test = "CYP3A"
assay_readout = "IC50 at 10 min"
experimental_result = "> 50 µM"


----------
Reported Emax values for the following compounds.
# System: E-box-LUC reporter
# METHOD NOTES: E-box-LUC luciferase reporter assay, dose-response in stably transfected NIH3T3 cells
# Type: cell-based
# RUN PARAMETERS: Mus musculus; maximum response as a percentage of the vehicle-treated group; E-box-LUC reporter activity, NIH3T3, 36 h; read-out: Max (%)
ASSAY READOUT: Emax (%)

[[record]]
structure_smiles_string = "COC(=O)COc1cccc(C(C)=NOCc2cccc(C(F)(F)F)c2)c1"
experimental_result = 172

[[record]]
structure_smiles_string = "CC(=NOCc1ccc(S(C)(=O)=O)cc1)c1cccc(OCC(=O)O)c1"
experimental_result = 98.7

[[record]]
structure_smiles_string = "COC(=O)COc1cccc(/C(C)=N/OCc2ccc(Br)cc2)c1"
experimental_result = 149

[[record]]
structure_smiles_string = "COC(=O)COc1cccc(C(C)=NOCc2ccc(OC)cc2)c1"
experimental_result = 152

[[record]]
structure_smiles_string = "COC(=O)COc1cccc(C(C)=NOCc2ccc([N+](=O)[O-])cc2)c1"
experimental_result = 193

[[record]]
structure_smiles_string = "C/C(=N\\OCc1ccc(Br)cc1)c1cccc(OCC(=O)O)c1"
experimental_result = 165

[[record]]
structure_smiles_string = "CC(=NOCc1cccc(C(F)(F)F)c1)c1cccc(OCC(=O)O)c1"
experimental_result = 131

[[record]]
structure_smiles_string = "COC(=O)COc1cccc(C(C)=NOCc2ccc(S(C)(=O)=O)cc2)c1"
experimental_result = 105

[[record]]
structure_smiles_string = "COc1ccc(CON=C(C)c2cccc(OCC(=O)O)c2)cc1"
experimental_result = 182

[[record]]
structure_smiles_string = "CC(=NOCc1ccc([N+](=O)[O-])cc1)c1cccc(OCC(=O)O)c1"
experimental_result = 161

